FYI, the data here is from patent US9453051B2.

study target: recombinant human wild type Cyp18 (Cyp18 wt) (Homo sapiens, UniProt P62937)
Sequence (P62937 whole entry): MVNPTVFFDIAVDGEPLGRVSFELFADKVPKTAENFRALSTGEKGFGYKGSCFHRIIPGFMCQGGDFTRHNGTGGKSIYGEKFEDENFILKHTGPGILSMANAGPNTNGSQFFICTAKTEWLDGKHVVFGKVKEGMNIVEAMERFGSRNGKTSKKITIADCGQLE
protocol notes: biochemical
reported metric: IC50 (nM)

[[record]]
molecule = "CCOC(=O)c1ccc2[nH]c(C[C@@H](C)[C@@H](O)[C@H]3C(=O)N[C@@H](CC)C(=O)N(C)CC(=O)N(C)[C@@H](CC(C)C)C(=O)N[C@@H](C(C)C)C(=O)N(C)[C@@H](CC(C)C)C(=O)N[C@@H](C)C(=O)N[C@H](C)C(=O)N(C)[C@@H](CC(C)C)C(=O)N(C)[C@@H](CC(C)C)C(=O)N(C)[C@@H](C(C)C)C(=O)N3C)nc2c1 [Compound 9]"
sign_qualifier = "="
recorded_number = 13.9

[[record]]
molecule = "CC[C@@H]1NC(=O)[C@H]([C@H](O)[C@H](C)Cc2nc3cc(S(=O)(=O)O)ccc3[nH]2)N(C)C(=O)[C@H](C(C)C)N(C)C(=O)[C@H](CC(C)C)N(C)C(=O)[C@H](CC(C)C)N(C)C(=O)[C@@H](C)NC(=O)[C@H](C)NC(=O)[C@H](CC(C)C)N(C)C(=O)[C@H](C(C)C)NC(=O)[C@H](CC(C)C)N(C)C(=O)CN(C)C1=O [Compound 22]"
sign_qualifier = "="
recorded_number = 8.7

[[record]]
molecule = "CC[C@@H]1NC(=O)[C@H]([C@H](O)[C@H](C)Cc2nc3cc(C(=O)NCCN(C)C)ccc3[nH]2)N(C)C(=O)[C@H](C(C)C)N(C)C(=O)[C@H](CC(C)C)N(C)C(=O)[C@H](CC(C)C)N(C)C(=O)[C@@H](C)NC(=O)[C@H](C)NC(=O)[C@H](CC(C)C)N(C)C(=O)[C@H](C(C)C)NC(=O)[C@H](CC(C)C)N(C)C(=O)CN(C)C1=O [Compound 52]"
sign_qualifier = "="
recorded_number = 8

[[record]]
molecule = "CC[C@@H]1NC(=O)[C@H]([C@H](O)[C@H](C)Cc2nc3cc(C(=O)NCCN4CCN(C(=O)CCC(=O)O)CC4)ccc3[nH]2)N(C)C(=O)[C@H](C(C)C)N(C)C(=O)[C@H](CC(C)C)N(C)C(=O)[C@H](CC(C)C)N(C)C(=O)[C@@H](C)NC(=O)[C@H](C)NC(=O)[C@H](CC(C)C)N(C)C(=O)[C@H](C(C)C)NC(=O)[C@H](CC(C)C)N(C)C(=O)CN(C)C1=O [Compound 54]"
sign_qualifier = "="
recorded_number = 7.1

[[record]]
molecule = "CC[C@@H]1NC(=O)[C@H]([C@H](O)[C@H](C)Cc2nc3cc(C(=O)N4CCCC4C(=O)N4CCC[C@H]4C(=O)N4CCCC4C(=O)N4CCC[C@H]4C(=O)N4CCCC4C(=O)N4CCC[C@H]4C(=O)O)ccc3[nH]2)N(C)C(=O)[C@H](C(C)C)N(C)C(=O)[C@H](CC(C)C)N(C)C(=O)[C@H](CC(C)C)N(C)C(=O)[C@@H](C)NC(=O)[C@H](C)NC(=O)[C@H](CC(C)C)N(C)C(=O)[C@H](C(C)C)NC(=O)[C@H](CC(C)C)N(C)C(=O)CN(C)C1=O (some centres unmarked) [Compound 49]"
sign_qualifier = "="
recorded_number = 30.9

[[record]]
molecule = "CC[C@@H]1NC(=O)[C@H]([C@H](O)[C@H](C)Cc2nc3cc(S(=O)(=O)O)cc(F)c3[nH]2)N(C)C(=O)[C@H](C(C)C)N(C)C(=O)[C@H](CC(C)C)N(C)C(=O)[C@H](CC(C)C)N(C)C(=O)[C@@H](C)NC(=O)[C@H](C)NC(=O)[C@H](CC(C)C)N(C)C(=O)[C@H](C(C)C)NC(=O)[C@H](CC(C)C)N(C)C(=O)CN(C)C1=O [Compound 48]"
sign_qualifier = "="
recorded_number = 8.7

[[record]]
molecule = "CC[C@@H]1NC(=O)[C@H]([C@H](O)[C@H](C)Cc2nc3cc(C(=O)NCCOCCOCCNC(=O)[C@@H]4C[C@H](C(=O)O)C[C@H](C(=O)O)C4)ccc3[nH]2)N(C)C(=O)[C@H](C(C)C)N(C)C(=O)[C@H](CC(C)C)N(C)C(=O)[C@H](CC(C)C)N(C)C(=O)[C@@H](C)NC(=O)[C@H](C)NC(=O)[C@H](CC(C)C)N(C)C(=O)[C@H](C(C)C)NC(=O)[C@H](CC(C)C)N(C)C(=O)CN(C)C1=O [Compound 67]"
sign_qualifier = "="
recorded_number = 8.4

[[record]]
molecule = "CC[C@@H]1NC(=O)[C@H]([C@H](O)[C@H](C)Cc2nc3cc(NS(=O)(=O)C(F)(F)F)ccc3[nH]2)N(C)C(=O)[C@H](C(C)C)N(C)C(=O)[C@H](CC(C)C)N(C)C(=O)[C@H](CC(C)C)N(C)C(=O)[C@@H](C)NC(=O)[C@H](C)NC(=O)[C@H](CC(C)C)N(C)C(=O)[C@H](C(C)C)NC(=O)[C@H](CC(C)C)N(C)C(=O)CN(C)C1=O [Compound 47]"
sign_qualifier = "="
recorded_number = 13.2

[[record]]
molecule = "CC[C@@H]1NC(=O)[C@H]([C@H](O)[C@H](C)Cc2nc3c(F)c(F)cc(S(=O)(=O)O)c3[nH]2)N(C)C(=O)[C@H](C(C)C)N(C)C(=O)[C@H](CC(C)C)N(C)C(=O)[C@H](CC(C)C)N(C)C(=O)[C@@H](C)NC(=O)[C@H](C)NC(=O)[C@H](CC(C)C)N(C)C(=O)[C@H](C(C)C)NC(=O)[C@H](CC(C)C)N(C)C(=O)CN(C)C1=O [Compound 20]"
sign_qualifier = "="
recorded_number = 6.7

[[record]]
molecule = "CC[C@@H]1NC(=O)[C@H]([C@H](O)[C@H](C)Cc2nc3cc(C(=O)NCCC(=O)NCCC(=O)NCCC(=O)NCCC(=O)NCCC(=O)NCCC(=O)O)ccc3[nH]2)N(C)C(=O)[C@H](C(C)C)N(C)C(=O)[C@H](CC(C)C)N(C)C(=O)[C@H](CC(C)C)N(C)C(=O)[C@@H](C)NC(=O)[C@H](C)NC(=O)[C@H](CC(C)C)N(C)C(=O)[C@H](C(C)C)NC(=O)[C@H](CC(C)C)N(C)C(=O)CN(C)C1=O [Compound 51]"
sign_qualifier = "="
recorded_number = 7.3

[[record]]
molecule = "CC[C@@H]1NC(=O)[C@H]([C@H](O)[C@H](C)Cc2nc3c(C(=O)O)cccc3n2C)N(C)C(=O)[C@H](C(C)C)N(C)C(=O)[C@H](CC(C)C)N(C)C(=O)[C@H](CC(C)C)N(C)C(=O)[C@@H](C)NC(=O)[C@H](C)NC(=O)[C@H](CC(C)C)N(C)C(=O)[C@H](C(C)C)NC(=O)[C@H](CC(C)C)N(C)C(=O)CN(C)C1=O [Compound 56]"
sign_qualifier = ">"
recorded_number = 1000

